molecular target: JAK2/JAK2 homdimeric complex (Homo sapiens (Human), UniProt O60674); assay: GM-CSF Induced pSTAT5 in Human PBMC; settings: GM-CSF 5 ng/mL for 20 minutes, pSTAT5 by MSD, read-out: PBMC_GMCSF_pSTAT5 IC50
Sequence (O60674 whole entry): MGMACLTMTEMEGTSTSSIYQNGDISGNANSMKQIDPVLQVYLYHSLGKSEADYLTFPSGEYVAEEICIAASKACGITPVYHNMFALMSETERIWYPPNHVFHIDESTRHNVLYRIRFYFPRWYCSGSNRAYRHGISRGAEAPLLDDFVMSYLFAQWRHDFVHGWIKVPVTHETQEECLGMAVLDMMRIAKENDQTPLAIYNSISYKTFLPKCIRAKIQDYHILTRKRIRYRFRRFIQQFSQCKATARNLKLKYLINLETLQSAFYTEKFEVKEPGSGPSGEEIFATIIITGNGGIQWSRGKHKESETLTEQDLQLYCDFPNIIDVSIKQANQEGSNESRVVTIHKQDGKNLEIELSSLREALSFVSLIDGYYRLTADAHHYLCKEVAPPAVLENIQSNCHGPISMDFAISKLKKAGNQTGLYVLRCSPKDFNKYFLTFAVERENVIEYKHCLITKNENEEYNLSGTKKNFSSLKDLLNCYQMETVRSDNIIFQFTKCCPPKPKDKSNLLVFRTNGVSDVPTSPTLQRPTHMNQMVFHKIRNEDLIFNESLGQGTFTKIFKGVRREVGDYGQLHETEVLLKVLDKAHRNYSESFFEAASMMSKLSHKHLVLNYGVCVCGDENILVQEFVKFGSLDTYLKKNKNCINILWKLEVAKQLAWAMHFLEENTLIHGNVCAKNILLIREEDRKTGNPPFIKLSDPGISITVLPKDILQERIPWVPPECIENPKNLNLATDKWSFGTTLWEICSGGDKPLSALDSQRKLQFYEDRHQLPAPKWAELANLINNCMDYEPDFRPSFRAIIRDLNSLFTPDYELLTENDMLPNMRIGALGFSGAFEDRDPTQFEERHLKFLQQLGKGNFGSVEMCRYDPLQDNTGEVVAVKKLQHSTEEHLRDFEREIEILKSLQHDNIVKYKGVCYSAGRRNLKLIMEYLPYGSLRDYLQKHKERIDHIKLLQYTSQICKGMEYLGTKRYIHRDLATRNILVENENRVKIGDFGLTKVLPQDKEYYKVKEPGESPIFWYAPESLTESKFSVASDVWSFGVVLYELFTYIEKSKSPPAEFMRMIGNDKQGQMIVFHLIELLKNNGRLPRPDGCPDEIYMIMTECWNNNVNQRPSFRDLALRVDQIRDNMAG
Sequence (P32927 17-897 partner): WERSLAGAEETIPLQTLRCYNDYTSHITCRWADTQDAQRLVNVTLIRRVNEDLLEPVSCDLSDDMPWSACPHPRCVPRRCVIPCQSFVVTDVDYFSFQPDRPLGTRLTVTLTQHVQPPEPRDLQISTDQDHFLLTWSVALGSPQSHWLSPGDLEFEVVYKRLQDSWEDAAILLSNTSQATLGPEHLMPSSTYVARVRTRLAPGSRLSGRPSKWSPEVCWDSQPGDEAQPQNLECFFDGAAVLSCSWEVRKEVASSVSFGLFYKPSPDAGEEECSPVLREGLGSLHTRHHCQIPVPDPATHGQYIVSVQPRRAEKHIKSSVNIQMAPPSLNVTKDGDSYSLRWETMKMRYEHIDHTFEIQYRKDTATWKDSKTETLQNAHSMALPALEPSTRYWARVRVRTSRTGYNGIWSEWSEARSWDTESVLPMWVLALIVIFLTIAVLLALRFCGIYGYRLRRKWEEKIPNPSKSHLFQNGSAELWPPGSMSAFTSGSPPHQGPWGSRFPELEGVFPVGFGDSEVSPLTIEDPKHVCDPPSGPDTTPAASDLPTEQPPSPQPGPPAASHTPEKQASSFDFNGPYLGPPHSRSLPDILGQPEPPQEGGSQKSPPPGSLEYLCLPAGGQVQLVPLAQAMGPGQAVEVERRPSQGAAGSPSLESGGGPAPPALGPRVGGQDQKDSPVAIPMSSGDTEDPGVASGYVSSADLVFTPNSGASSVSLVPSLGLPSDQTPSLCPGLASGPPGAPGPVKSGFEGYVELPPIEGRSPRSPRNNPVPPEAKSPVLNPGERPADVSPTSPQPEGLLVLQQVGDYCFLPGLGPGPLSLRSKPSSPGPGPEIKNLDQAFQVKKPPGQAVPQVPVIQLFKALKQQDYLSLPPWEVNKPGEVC
property label: IC50

Illustrative cases are given below, each with its answer.
Find the measured IC50 of "CNc1cc(Nc2cc(F)cn(-c3cnn(C)c3)c2=O)nc2c(C(=O)NC3CC3)cnn12" and report it.
> 12.5 µM

Return value of IC50 for input "CNc1cc(Nc2cc(F)cnc2OC)nc2c(C(=O)NCC(C)(C)CO)cnn12" , no commentary.
> 50 µM

Indicate its recorded IC50; the compound in question is "CNc1cc(Nc2cc(Cl)cn(C3CCN(C)CC3)c2=O)nc2c(C(=O)NC3CC3)cnn12"
> 12.5 µM

Give reported IC50 value for "CNc1cc(Nc2cccn(-c3cnc(C)o3)c2=O)nc2c(C(=O)N[C@H]3C[C@H]3F)cnn12"
> 12.5 µM

Supply measured IC50 of CNc1cc(Nc2cc(Cl)cn(C3CCCN(C)C3)c2=O)nc2c(C(=O)NC3CC3)cnn12 (centres unmarked) in your reply.
> 2.5 µM

Others:
Provide IC50 value for the following compound: "CNc1cc(Nc2cccn(-c3cccnc3)c2=O)nc2c(C(=O)NC3CC3)cnn12"
> 12.5 µM

Tell us which IC50 value is on record for "CNc1cc(Nc2cc(F)cnc2OCCOC)nc2c(C(=O)N[C@H]3C[C@H]3F)cnn12"
> 50 µM

Report measured IC50; entry is "CNc1cc(Nc2cccn3ccnc23)nc2c(C(=O)N[C@H]3CC[C@@H]3OC)cnn12"
> 50 µM

---

biological target: human TYK2 (JH2domain-pseudokinase) (Homo sapiens (Human)); assay: TYK2 JH2 Domain Binding Assay (KINOMEscan)
Sequence (P29597 556-888): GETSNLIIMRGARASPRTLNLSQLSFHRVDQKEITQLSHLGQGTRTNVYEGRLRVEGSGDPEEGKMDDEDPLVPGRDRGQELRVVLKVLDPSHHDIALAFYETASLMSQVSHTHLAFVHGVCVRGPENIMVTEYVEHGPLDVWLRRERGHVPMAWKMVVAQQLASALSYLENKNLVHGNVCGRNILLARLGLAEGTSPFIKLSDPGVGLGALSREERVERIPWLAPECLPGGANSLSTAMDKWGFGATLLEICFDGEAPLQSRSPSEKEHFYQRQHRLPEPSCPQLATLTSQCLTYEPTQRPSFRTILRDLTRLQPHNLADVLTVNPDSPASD
property label: Kd

Worked examples follow.
Specify measured Kd for "CNc1cc(Nc2cccn([C@@H]3CCCOC3)c2=O)nc2c(C(=O)N[C@@H]3C[C@H]3OC)cnn12" .
0.2 to 1 nM

Input "CNc1cc(Nc2cccn([C@@H]3C[C@H]3OC)c2=O)nc2c(C(=O)NC3CC3)cnn12" , output reported Kd.
< 0.2 nM

// fetch Kd given entry "CNc1cc(Nc2cccnc2OC(CO)CO)nc2c(C(=O)NC3CCC3)cnn12"
< 0.2 nM

Next:
Output Kd of CNc1cc(Nc2cc(Cl)cn(C3CCCN(C)C3)c2=O)nc2c(C(=O)N[C@@H]3C[C@@H]3F)cnn12 (some centres unmarked)
< 0.2 nM

Identify Kd associated with the molecule "CNc1cc(Nc2cccn([C@H]3CC[C@](C)(OC)CC3)c2=O)nc2c(C(=O)N[C@H]3C[C@H]3F)cnn12"
< 0.2 nM

Look up and report measured Kd for this entry: "CNc1cc(Nc2cccc3ocnc23)nc2c(C(=O)N[C@@H]3COC[C@@H]3O)cnn12"
> 10 nM

Read the entry "CNc1cc(Nc2cc(Cl)cn(-c3ccn(C4CC4)n3)c2=O)nc2c(C(=O)N[C@H]3C[C@H]3F)cnn12" and write its reported Kd.
< 0.2 nM

// Input: CNc1cc(Nc2cccn([C@H]3CC[C@](C)(OC)CC3)c2=O)nc2c(C(=O)N[C@@H]3CC[C@@H]3O)cnn12 [I-670] . Output its Kd only.
< 0.2 nM
